Listing: shrunken log2 fold change of selected sequences
tested on: Escherichia coli TOP10; test: shrunken log2 fold change of peptide-encoding DNA abundance (4.5 h post-induction vs induction); higher = less antimicrobial activity (less host growth inhibition); conditions: time post-induction: 4.5 h; library: site-saturation at positions 5, 18, 19, 20
Write the value as a bare number.

Known shrunken log2 fold change results, listed for orientation:
SEQ	PROPERTY	REPORTED_VALUE
RRIRPRPPRLPRPRPRPWMFPRP	shrunken log2 fold change	-0.306
RRIRKRPPRLPRPRPRPWHTPRP	shrunken log2 fold change	0.0104
RRIRGRPPRLPRPRPRPMQQPRP	shrunken log2 fold change	2.08
RRIRIRPPRLPRPRPRPYHSPRP	shrunken log2 fold change	-0.00112
RRIRSRPPRLPRPRPRPGFDPRP	shrunken log2 fold change	0.455
RRIRWRPPRLPRPRPRPMHHPRP	shrunken log2 fold change	-0.261
RRIRTRPPRLPRPRPRPETGPRP	shrunken log2 fold change	-0.00371
RRIRGRPPRLPRPRPRPLTDPRP	shrunken log2 fold change	0.284

Q) In one line, give reported shrunken log2 fold change of the entry `RRIRVRPPRLPRPRPRPILQPRP` .
A) -0.399

Q) In one line, give reported shrunken log2 fold change of the entry `RRIRIRPPRLPRPRPRPYHKPRP` .
A) -0.165

Q) In one line, give reported shrunken log2 fold change of the entry `RRIRLRPPRLPRPRPRPLGWPRP` .
A) 0.584

Q) In one line, give reported shrunken log2 fold change of the entry `RRIRERPPRLPRPRPRPEQVPRP` .
A) -0.0135

Q) In one line, give reported shrunken log2 fold change of the entry `RRIRGRPPRLPRPRPRPRQLPRP` .
A) 0.549

Q) In one line, give reported shrunken log2 fold change of the entry `RRIRVRPPRLPRPRPRPNGYPRP` .
A) -0.199

Q) In one line, give reported shrunken log2 fold change of the entry `RRIRPRPPRLPRPRPRPAEMPRP` .
A) 0.189

Q) In one line, give reported shrunken log2 fold change of the entry `RRIRSRPPRLPRPRPRPHPVPRP` .
A) 0.12

Q) In one line, give reported shrunken log2 fold change of the entry `RRIRERPPRLPRPRPRPVRNPRP` .
A) -0.41

Q) In one line, give reported shrunken log2 fold change of the entry `RRIRWRPPRLPRPRPRPAWEPRP` .
A) 0.534

Q) In one line, give reported shrunken log2 fold change of the entry `RRIRMRPPRLPRPRPRPVVMPRP` .
A) -0.0363

Q) In one line, give reported shrunken log2 fold change of the entry `RRIRARPPRLPRPRPRPPNQPRP` .
A) 0.691

Q) In one line, give reported shrunken log2 fold change of the entry `RRIRFRPPRLPRPRPRPNSHPRP` .
A) -0.432

Q) In one line, give reported shrunken log2 fold change of the entry `RRIRPRPPRLPRPRPRPDWVPRP` .
A) 0.0636

Q) In one line, give reported shrunken log2 fold change of the entry `RRIRRRPPRLPRPRPRPGSCPRP` .
A) 0.152

Q) In one line, give reported shrunken log2 fold change of the entry `RRIRERPPRLPRPRPRPALQPRP` .
A) 0.22

Q) In one line, give reported shrunken log2 fold change of the entry `RRIRNRPPRLPRPRPRPGKKPRP` .
A) -0.00783

Q) In one line, give reported shrunken log2 fold change of the entry `RRIRNRPPRLPRPRPRPDPPPRP` .
A) 0.143

====

tested on: Escherichia coli TOP10; assay: shrunken log2 fold change of peptide-encoding DNA abundance (4.5 h post-induction vs induction); higher = less antimicrobial activity (less host growth inhibition); settings: time post-induction: 4.5 h; library: site-saturation at positions 5, 18, 19, 20
PROPERTY: shrunken log2 fold change
Write the value as a bare number.

SEQ	ASSAY_SYSTEM	shrunken log2 fold change
RRIRFRPPRLPRPRPRPFHFPRP	Escherichia coli TOP10	-0.532

Q) In one line, give reported shrunken log2 fold change of the entry `RRIRRRPPRLPRPRPRPNQLPRP` .
A) -0.178

Q) In one line, give reported shrunken log2 fold change of the entry `RRIRERPPRLPRPRPRPAYIPRP` .
A) -0.168

Q) In one line, give reported shrunken log2 fold change of the entry `RRIRKRPPRLPRPRPRPQCSPRP` .
A) 0.136

Q) In one line, give reported shrunken log2 fold change of the entry `RRIRHRPPRLPRPRPRPSLNPRP` .
A) -0.51

====

test system: Escherichia coli TOP10; assay: shrunken log2 fold change of peptide-encoding DNA abundance (4.5 h post-induction vs induction); higher = less antimicrobial activity (less host growth inhibition); conditions: time post-induction: 4.5 h; library: site-saturation at positions 5, 18, 19, 20
Listing: shrunken log2 fold change of selected sequences
Write the value as a bare number.

Known shrunken log2 fold change results, listed for orientation:
SEQ	PROPERTY	REPORTED_VALUE
RRIRDRPPRLPRPRPRPSQQPRP	shrunken log2 fold change	-0.123
RRIRSRPPRLPRPRPRPRCGPRP	shrunken log2 fold change	0.34
RRIRVRPPRLPRPRPRPFGCPRP	shrunken log2 fold change	-0.19

Q) Consider the sequence `RRIRCRPPRLPRPRPRPARGPRP` tested on Escherichia coli TOP10; state its shrunken log2 fold change.
A) 0.297

Q) Consider the sequence `RRIRWRPPRLPRPRPRPHNFPRP` tested on Escherichia coli TOP10; state its shrunken log2 fold change.
A) -0.0122

Q) Consider the sequence `RRIRERPPRLPRPRPRPTAHPRP` tested on Escherichia coli TOP10; state its shrunken log2 fold change.
A) 0.0481

Q) Consider the sequence `RRIRPRPPRLPRPRPRPAWSPRP` tested on Escherichia coli TOP10; state its shrunken log2 fold change.
A) 0.152

Q) Consider the sequence `RRIRIRPPRLPRPRPRPIGPPRP` tested on Escherichia coli TOP10; state its shrunken log2 fold change.
A) 0.0815

Q) Consider the sequence `RRIRDRPPRLPRPRPRPWATPRP` tested on Escherichia coli TOP10; state its shrunken log2 fold change.
A) 0.0691

Q) Consider the sequence `RRIRPRPPRLPRPRPRPQKCPRP` tested on Escherichia coli TOP10; state its shrunken log2 fold change.
A) -0.0778

Q) Consider the sequence `RRIRDRPPRLPRPRPRPWLEPRP` tested on Escherichia coli TOP10; state its shrunken log2 fold change.
A) 0.098

Q) Consider the sequence `RRIRKRPPRLPRPRPRPVKYPRP` tested on Escherichia coli TOP10; state its shrunken log2 fold change.
A) 0.221

Q) Consider the sequence `RRIRFRPPRLPRPRPRPNTSPRP` tested on Escherichia coli TOP10; state its shrunken log2 fold change.
A) -0.307

====

tested on: Escherichia coli TOP10; assay: shrunken log2 fold change of peptide-encoding DNA abundance (4.5 h post-induction vs induction); higher = less antimicrobial activity (less host growth inhibition); conditions: time post-induction: 4.5 h; library: site-saturation at positions 5, 18, 19, 20
PROPERTY: shrunken log2 fold change
Write the value as a bare number.

Known shrunken log2 fold change results, listed for orientation:
SEQ	REPORTED_VALUE
RRIRDRPPRLPRPRPRPFNDPRP	-0.158
RRIRGRPPRLPRPRPRPPGIPRP	0.745
RRIRQRPPRLPRPRPRPDGKPRP	0.0269
RRIRDRPPRLPRPRPRPFVCPRP	-0.213
RRIRHRPPRLPRPRPRPRCSPRP	-0.236
RRIRSRPPRLPRPRPRPSDKPRP	-0.351

Q) In one line, give reported shrunken log2 fold change of the entry `RRIRERPPRLPRPRPRPWRLPRP` .
A) -0.00145

Q) In one line, give reported shrunken log2 fold change of the entry `RRIRARPPRLPRPRPRPHLCPRP` .
A) 0.202

Q) In one line, give reported shrunken log2 fold change of the entry `RRIRTRPPRLPRPRPRPPPWPRP` .
A) 0.614

====

test system: Escherichia coli TOP10; assay: shrunken log2 fold change of peptide-encoding DNA abundance (4.5 h post-induction vs induction); higher = less antimicrobial activity (less host growth inhibition); settings: time post-induction: 4.5 h; library: site-saturation at positions 5, 18, 19, 20;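 further: peptides expressed intracellularly from a pBAD plasmid library in pooled LB shake-flask culture, induced with 0.3% L-arabinose, DNA abundance read by NGS, three biological replicates, DESeq2 with apeglm shrinkage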
Label f if shrunken log2 fold change falls below -0.01; label t in every other case.

Field: example entries. Status: answers known.
SEQ	CATEGORY
RRIRFRPPRLPRPRPRPVMKPRP	f
RRIRVRPPRLPRPRPRPMRTPRP	f
RRIRFRPPRLPRPRPRPGEFPRP	f
RRIRLRPPRLPRPRPRPDELPRP	t
RRIRDRPPRLPRPRPRPIFVPRP	t

Q) Quick check, shrunken log2 fold change >= -0.01? `RRIRMRPPRLPRPRPRPMWPPRP`
A) t

Q) Quick check, shrunken log2 fold change >= -0.01? `RRIRERPPRLPRPRPRPESNPRP`
A) f

Q) Quick check, shrunken log2 fold change >= -0.01? `RRIRSRPPRLPRPRPRPYNVPRP`
A) t
